target: hCB1 receptor (Homo sapiens); assay: Agonism of CB1 by detection of cAMP using HTRF; type: cell-based; conditions: CHO cells stably expressing CB1 receptor, cAMP HTRF, forskolin-stimulated; average if tested more than once; read-out: hCB1 CHO EC50
Sequence (P21554 whole entry): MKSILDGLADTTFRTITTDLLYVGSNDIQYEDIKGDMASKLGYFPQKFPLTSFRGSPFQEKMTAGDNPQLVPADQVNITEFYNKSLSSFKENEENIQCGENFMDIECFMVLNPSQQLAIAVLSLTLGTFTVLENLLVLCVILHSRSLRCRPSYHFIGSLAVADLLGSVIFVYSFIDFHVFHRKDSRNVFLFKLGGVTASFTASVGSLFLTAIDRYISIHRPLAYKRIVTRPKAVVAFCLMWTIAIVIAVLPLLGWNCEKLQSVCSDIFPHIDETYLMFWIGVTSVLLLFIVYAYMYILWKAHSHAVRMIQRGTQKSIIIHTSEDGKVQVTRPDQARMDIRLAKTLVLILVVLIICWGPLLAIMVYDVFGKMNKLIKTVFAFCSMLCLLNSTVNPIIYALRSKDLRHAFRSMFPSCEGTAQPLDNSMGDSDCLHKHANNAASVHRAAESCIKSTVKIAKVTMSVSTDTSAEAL

{"compound": "CC(C)(C)c1noc(-c2nn(-c3cnccn3)c3c2CC2CCC3O2)n1 (stereo not drawn) [Compound 37]", "measurement units": "nM", "EC50": 177}
{"compound": "O=C(NC12CC3CC(CC1C3)C2)c1nn(-c2ccc(F)cc2F)c2c1CC1CCC2O1 (stereo not drawn) [Compound 41]", "measurement units": "nM", "EC50": 0.7}
{"compound": "CC(C)(C)[C@@H](CO)NC(=O)c1nn(-c2cnccn2)c2c1C[C@H]1CC[C@@H]2O1 [Compound 8]", "measurement units": "nM", "EC50": 422}
{"compound": "CC(C)(C)c1noc(-c2nn(-c3c[n+]([O-])ccn3)c3c2CC2CCC3O2)n1 (stereo not drawn) [Compound 26]", "measurement units": "nM", "EC50": 4920}
{"compound": "CCC(C)(C)c1noc(-c2nn(-c3c[n+]([O-])ccn3)c3c2CC2CCC3O2)n1 (stereo not drawn) [Compound 25]", "measurement units": "nM", "EC50": 114}
{"compound": "CC(C)(C)c1nnc(-c2nn(-c3c[n+]([O-])ccn3)c3c2CC2CCC3O2)o1 (stereo not drawn) [Compound 29]", "measurement units": "nM", "EC50": 2370}
{"compound": "O=C(NC12CCC(CC1)CC2)c1nn(-c2c[n+]([O-])ccn2)c2c1CC1CCC2O1 (stereo not drawn) [Compound 22]", "measurement units": "nM", "EC50": 48.5}
{"compound": "O=C(NC1(C(F)(F)F)CCC1)c1nn(-c2c[n+]([O-])ccn2)c2c1CC1CCC2O1 (stereo not drawn) [Compound 18]", "measurement units": "nM", "EC50": 198}
{"compound": "O=C(NC1(C(F)(F)F)CCC1)c1nn(-c2cnccn2)c2c1CC1CCC2O1 (stereo not drawn) [Compound 10]", "measurement units": "nM", "EC50": 571}
{"compound": "O=C(NC12CC3CC(CC1C3)C2)c1nn(-c2cnccn2)c2c1CC1CCC2O1 (stereo not drawn) [Compound 13]", "measurement units": "nM", "EC50": 16.6}
{"compound": "O=C(NC12CC(C1)C2)c1nn(-c2c[n+]([O-])ccn2)c2c1CC1CCC2O1 (stereo not drawn) [Compound 20]", "measurement units": "nM", "EC50": 1780}
{"compound": "CC(C)(C)[C@@H](CO)NC(=O)c1nn(-c2c[n+]([O-])ccn2)c2c1C[C@H]1CC[C@@H]2O1 [Compound 16]", "measurement units": "nM", "EC50": 352}
{"compound": "CC(C)(C)NC(=O)c1nn(-c2ccc(F)cc2F)c2c1CC1CCC2O1 (stereo not drawn) [Compound 1]", "measurement units": "nM", "EC50": 108}
{"compound": "CC(C)(C)c1cnc(-c2nn(-c3c[n+]([O-])ccn3)c3c2CC2CCC3O2)s1 (stereo not drawn) [Compound 24]", "measurement units": "nM", "EC50": 65.7}
{"compound": "O=C(NC12CC(C1)C2)c1nn(-c2cnccn2)c2c1CC1CCC2O1 (stereo not drawn) [Compound 12]", "measurement units": "nM", "EC50": 1510}
{"compound": "O=C(NC[C@]12C[C@@H]3C[C@@H](C[C@@H](C3)C1)C2)c1nn(-c2ccc(F)cc2F)c2c1CC1CCC2O1 [Compound 42]", "measurement units": "nM", "EC50": 260}
{"compound": "O=C(NC12CC3CC(CC1C3)C2)c1nn(-c2c[n+]([O-])ccn2)c2c1CC1CCC2O1 (stereo not drawn) [Compound 21]", "measurement units": "nM", "EC50": 28.2}
{"compound": "CC(C)(C)NC(=O)c1nn(-c2c[n+]([O-])ccn2)c2c1CC1CCC2O1 (stereo not drawn) [Compound 31]", "measurement units": "nM", "EC50": 1430}
{"compound": "CC(C)(C)NC(=O)c1nn(-c2cnccn2)c2c1CC1CCC2O1 (stereo not drawn) [Compound 3]", "measurement units": "nM", "EC50": 2080}
{"compound": "CC(C)(C)c1nnc(-c2nn(-c3c[n+]([O-])ccn3)c3c2CC2CCC3O2)s1 (stereo not drawn) [Compound 27]", "measurement units": "nM", "EC50": 130}
{"compound": "O=C(NC12CCC(CC1)CC2)c1nn(-c2cnccn2)c2c1CC1CCC2O1 (stereo not drawn) [Compound 14]", "measurement units": "nM", "EC50": 61.8}
